Test System: T1, human amylin-3(a) receptor (human, UniProt P30988 25-474; O60896 24-148)
T1 sequence (looked up) 1: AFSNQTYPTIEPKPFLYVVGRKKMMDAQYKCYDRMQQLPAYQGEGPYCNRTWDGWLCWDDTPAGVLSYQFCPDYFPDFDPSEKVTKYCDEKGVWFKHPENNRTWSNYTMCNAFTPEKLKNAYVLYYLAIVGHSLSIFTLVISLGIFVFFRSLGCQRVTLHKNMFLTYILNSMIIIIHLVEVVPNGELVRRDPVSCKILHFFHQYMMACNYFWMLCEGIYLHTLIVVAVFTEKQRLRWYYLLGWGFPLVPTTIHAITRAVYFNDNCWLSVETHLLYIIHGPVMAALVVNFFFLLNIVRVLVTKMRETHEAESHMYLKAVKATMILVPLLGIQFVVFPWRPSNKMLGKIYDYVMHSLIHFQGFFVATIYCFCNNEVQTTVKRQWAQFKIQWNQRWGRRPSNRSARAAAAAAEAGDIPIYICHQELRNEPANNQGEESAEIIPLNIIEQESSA
T1 sequence (looked up) 2: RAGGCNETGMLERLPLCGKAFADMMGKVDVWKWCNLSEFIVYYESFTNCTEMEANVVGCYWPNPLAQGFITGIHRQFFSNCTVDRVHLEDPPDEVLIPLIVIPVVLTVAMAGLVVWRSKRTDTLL
Assay Remarks: cell-based or functional assay
Numbered stars: 1 amine (or outer) side, 2 acyl side, 3 side chain; on linkers, the order of the positions; unused ones are H or OH. Square brackets hold non-standard residues; d marks the D form. Side chains are listed from the residue outwards. * marks the point of attachment. C18 diacid = O=C(O)CCCCCCCCCCCCCCCCC(=O)*; γGlu = O=C(O)[C@H](CCC(=O)[*:2])N[*:1]; Chem. 28 = not defined here; AEEA = NCCOCCOCC(=O)O; Aib = CC(C)(N)C(=O)O
// hAMYR3 Potency, no HSA, EC50 [pM] lookup, one value per entry
Reported Metric: hAMYR3 Potency, no HSA, EC50 [pM] (pM)

[[record]]
binder = "Compound 66 (peptide) peptide: H[Aib]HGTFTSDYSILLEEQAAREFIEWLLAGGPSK([AEEA-AEEA-γGlu-C18 diacid])GEASQLSTAALGRLSAELHHLATLPRTETGSGSP-NH2"
reported_metric = "hAMYR3 Potency, no HSA, EC50 [pM]"
number = 2.32

[[record]]
binder = "Compound 105 (reading uncertain) peptide: Y[Aib]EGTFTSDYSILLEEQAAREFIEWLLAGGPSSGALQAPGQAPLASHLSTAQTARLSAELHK(Chem. 28)LATLPRTETGSGSP-NH2"
reported_metric = "hAMYR3 Potency, no HSA, EC50 [pM]"
number = 2.88

[[record]]
binder = "Compound 22 (reading uncertain) peptide: H[Aib]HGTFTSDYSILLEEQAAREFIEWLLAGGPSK(Chem. 28)GAPPPSLAQTLAQTLASELSTAALGRLSAELHELATLPRTETGSGSP-NH2"
reported_metric = "hAMYR3 Potency, no HSA, EC50 [pM]"
number = 10.9

[[record]]
binder = "Compound 40 (reading uncertain; also: VARIANT 50 Aib (position 50 is T), mods: Aib at 2) peptide: Y[Aib]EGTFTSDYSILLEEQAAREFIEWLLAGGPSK(Chem. 28)GGGGEGGGEGEASHLSTAQTQRLSAELHELATLPRTETGSGSP-NH2"
reported_metric = "hAMYR3 Potency, no HSA, EC50 [pM]"
number = 5.49

[[record]]
binder = "Compound 113 (peptide) peptide: Y[Aib]EGTFTSDYSILLEEQAAREFIEWLLAGGPSSGAGQAPGQAPGASHLSTAQTARLSAELHK([AEEA-AEEA-γGlu-C18 diacid])LATLPRTETGSGSP-NH2"
reported_metric = "hAMYR3 Potency, no HSA, EC50 [pM]"
number = 2.53

[[record]]
binder = "Compound 52 (reading uncertain) peptide: Y[Aib]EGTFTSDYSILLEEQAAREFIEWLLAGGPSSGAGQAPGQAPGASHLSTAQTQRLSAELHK(Chem. 28)LATLPRTETGSGSP-NH2"
reported_metric = "hAMYR3 Potency, no HSA, EC50 [pM]"
number = 2.85

[[record]]
binder = "Compound 26 (reading uncertain) peptide: Y[Aib]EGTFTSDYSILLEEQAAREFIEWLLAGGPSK(Chem. 28)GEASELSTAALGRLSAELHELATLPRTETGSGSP-NH2"
reported_metric = "hAMYR3 Potency, no HSA, EC50 [pM]"
number = 11.8

[[record]]
binder = "Compound 34 (reading uncertain) peptide: Y[Aib]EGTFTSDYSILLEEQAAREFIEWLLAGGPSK(Chem. 28)GEASHLSTAQTQRLSAELHELATLPRTETGSGSP-NH2"
reported_metric = "hAMYR3 Potency, no HSA, EC50 [pM]"
number = 6.81

